molecular target: T1, Human CD47-Fc (human, UniProt Q08722 19-139, limits assumed); assay: bio-light interferometry (ForteBio), human CD47-Fc on AHQ tip, Fab 100 nM in solution, monovalent
T1 construct: the whole entry is named here; also called human CD47 (hCD47); CD47 antigen; not shown: Fc part
Readout: Kd (nM)
Return type: number; implicit unit nM.

### Prompt Name the recorded Kd of the binder listed here: ADI-29341 in Fab format (Fab, V domains shown) VH: QVQLQESGPGLVKPSETLSLTCTVSGGSIEHYYWSWIRQPPGKGLEWIGYIYYSGSTNYNPSLKSRVTISVDTSKNQFSLKLSSVTAADTAVYYCARGKTGSAAWGQGTLVTVSS VL: DIQMTQSPSSVSASVGDRVTITCRASQGISRWLAWYQQKPGKAPKLLIYAASSLQSGVPSRFSGSGSGTDFTLTISSLQPEDFATYYCQQTVSFPITFGGGTKVEIKR
### Response 4.62

### Prompt Name the recorded Kd of the binder listed here: ADI-29371 in Fab format (Fab, V domains shown) VH: EVQLLESGGGLVQPGGSLRLSCAASGFTFGNYAMSWVRQAPGKGLEWVSMISGGGSTYYADSVKGRFTISRDNSKNTLYLQMNSLRAEDTAVYYCAKTPIYYGFDLWGRGTLVTVSS VL: DIQLTQSPSSVSASVGDRVTITCRASQGISSWLAWYQQKPGKAPKLLIYGASSLQSGVPSRFSGSGSGTDFTLTISSLQPEDFATYYCQQKNPFPPTFGGGTKVEIKR
### Response 218

### Prompt Name the recorded Kd of the binder listed here: ADI-30793 in Fab format (Fab, V domains shown) VH: EVQLLESGGGLVQPGGSLRLSCAASGFTFDSYAMTWVRQAPGKGLEWVSVISGSGGKTYYADSVKGRFTISRDNSKNTLYLQMNSLRAEDTAVYYCAKTHLYYGFDLWGRGTLVTVSS VL: DIQLTQSPSSVSASVGDRVTITCRASQGISSWLAWYQQKPGKAPKLLIYGASSLQSGVPSRFSGSGSGTDFTLTISSLQPEDFATYYCQQKNPFPPFFGGGTKVEIKR
### Response 9.34

### Prompt Name the recorded Kd of the binder listed here: ADI-26624 in Fab format (Fab, V domains shown) VH: QVQLQESGPGLVKPSETLSLTCTVSGGSISSYYWSWIRQPPGKGLEWIGYIYYSGSTNYNPSLKSRVTISVDTSKNQFSLKLSSVTAADTAVYYCARGKSAFDPWGQGTLVTVSS VL: DIQMTQSPSSVSASVGDRVTITCRASQGISRWLAWYQQKPGKAPKLLIYAASSLQSGVPSRFSGSGSGTDFTLTISSLQPEDFATYYCQQADLHPPLTFGGGTKVEIKR
### Response 65.8

### Prompt Name the recorded Kd of the binder listed here: ADI-30794 in Fab format (Fab, V domains shown) VH: EVQLLESGGGLVQPGGSLRLSCAASGFTFGNYAMSWVRQAPGKGLEWVSAISGSGGKTYYADSVKGRFTISRDNSKNTLYLQMNSLRAEDTAVYYCAKTAIYYGFDLWGRGTLVTVSS VL: DIQLTQSPSSVSASVGDRVTITCRASQGISSWLAWYQQKPGKAPKLLIYGASSLQSGVPSRFSGSGSGTDFTLTISSLQPEDFATYYCQQKNPFPPFFGGGTKVEIKR
### Response 3.13

### Prompt Name the recorded Kd of the binder listed here: ADI-29336 in Fab format (Fab, V domains shown) VH: QVQLQESGPGLVKPSETLSLTCTVSGGSISNYYWSWIRQPPGKGLEWIGTIYYSGSTRYNPSLKSRVTISVDTSKNQFSLKLSSVTAADTAVYYCARGKSAFNPWGQGTLVTVSS VL: DIQMTQSPSSVSASVGDRVTITCRASQGISRWLAWYQQKPGKAPKLLIYAASSLQSGVPSRFSGSGSGTDFTLTISSLQPEDFATYYCQQADLHPPLTFGGGTKVEIKR
### Response 1.32
